Quick reference: composite z-score of the listed items.
System: Human papillomavirus type 1a E7 protein (residues 1-88)
Assay: HPV1a E7 small-molecule binders, primary screen, biochemical, small-molecule microarray, residues 1-88, 635 nm (AID 1129)
Conditions: small-molecule microarray binding, fluorescence 635 nm; higher = more signal
Lab note: record just the number, no unit beside it.

Known composite z-score results, listed for orientation:
[[record]]
compound = "C[C@H]1CC[C@H]2C(=O)O[C@H](CO)CN2[C@@H]1c1ccc(Br)cc1"
experimental_system = "Human papillomavirus type 1a E7 protein (residues 1-88)"
experimental_endpoint = "composite z-score"
value_measured = 0.015

[[record]]
compound = "CCN1C(=O)[C@H]2[C@H]3[C@H](O)[C@H](O)CC(=NNC(=O)OCc4ccccc4)[C@H]3CC[C@H]2C1=O"
experimental_system = "Human papillomavirus type 1a E7 protein (residues 1-88)"
experimental_endpoint = "composite z-score"
value_measured = -0.601

[[record]]
compound = "O=C1C2=CC[C@H]3C(=O)N(c4ccc(F)cc4F)C(=O)[C@H]3[C@H]2[C@H](O)[C@@H]2O[C@H]12"
experimental_system = "Human papillomavirus type 1a E7 protein (residues 1-88)"
experimental_endpoint = "composite z-score"
value_measured = 0.679


Lookup: composite z-score / Human papillomavirus type 1a E7 protein (residues 1-88) / `COC(OC)[C@@H](C)[C@H](OC)[C@@H](C)[C@H](OC)c1ccccc1`
0.104

Lookup: composite z-score / Human papillomavirus type 1a E7 protein (residues 1-88) / `COc1ccc(OC[C@@H](CO)OC)cc1`
0.0896

Lookup: composite z-score / Human papillomavirus type 1a E7 protein (residues 1-88) / `C=CC[C@@H]1C=C[C@H](ON=CC[C@@H]2C=C[C@H](OC(C)=O)[C@@H](COC(C)=O)O2)[C@@H](CO)O1`
0.915

Lookup: composite z-score / Human papillomavirus type 1a E7 protein (residues 1-88) / CC(CCN1CCc2nc(-c3ccccc3)c(-c3ccccc3)cc2C1)=NOC(C)CN1CCCc2nc(C)c(C)cc21 (stereo unspecified)
1.15

Lookup: composite z-score / Human papillomavirus type 1a E7 protein (residues 1-88) / `COC(=O)[C@H](Cc1ccccc1)NC(=O)[C@@H](C)CO`
-0.196

---

Assay: basal RPMI8226 mitochondrial membrane potential changes, profiling panel, cell-based, JC-1 fluorescence, 24 h, 100 nL compound (AID 1169); further: test concentration not given here
Details: RPMI8226 myeloma, JC-1 mitochondrial potential fluorescence, higher = more signal
Mark condition met for reported z-score of 0.4 or greater; mark condition not met for anything smaller.

// known answers, use as guide
[[record]]
compound = "O=C1[C@H]2[C@H]3[C@H](O)[C@H](O)CC(=NOC[C@@H](O)COCc4ccco4)[C@@H]3CC[C@H]2C(=O)N1Cc1ccccc1"
class = "condition not met"

[[record]]
compound = "CC(C)[C@@H](OCc1ccccc1)[C@H](C)C=NO[C@H](C)c1cn([C@@H]2COC[C@H]2O)nn1"
class = "condition met"

[[record]]
compound = "CCOC(=O)[C@H](Cc1ccccc1)NC(=O)CCC1CC(OC(=O)NCc2cccc3ccccc23)CC2(CCCC(COC(=O)NCC3CCCCC3)O2)O1 (some centres undefined)"
class = "condition not met"

[[record]]
compound = "CCN1C(=O)[C@H]2[C@H]3[C@H](O)[C@H](O)CC(=NOCC[C@@H]4C=C[C@H](OC(C)=O)[C@@H](COC(C)=O)O4)[C@@H]3CC[C@H]2C1=O"
class = "condition met"

[[record]]
compound = "COc1ccc(COC(=O)NN=C2C[C@@H](O)[C@@H](O)[C@@H]3[C@@H]4C(=O)N([C@@H](C)c5ccccc5)C(=O)[C@@H]4CC[C@H]23)cc1"
class = "condition not met"

[[record]]
compound = "C#CCCCON=C1C[C@@H](O)[C@@H](O)[C@@H]2[C@@H]3C(=O)N([C@@H](C)c4ccccc4)C(=O)[C@@H]3CC[C@@H]12"
class = "condition met"


// inclusive: z-score at least 0.4? input: `CC(=O)OC[C@H]1O[C@H](CC=NO[C@H](C)c2cn([C@@H]3COC[C@H]3O)nn2)C=C[C@@H]1OC(C)=O`
condition met

// inclusive: z-score at least 0.4? input: `O=C1C2=CC[C@H]3C(=O)N(Cc4ccccc4)C(=O)[C@H]3[C@H]2[C@H](O)[C@@H]2O[C@H]12`
condition not met

// inclusive: z-score at least 0.4? input: CCOC(=O)[C@H](CC(C)C)NC(=O)CCC1CC(OC(=O)NCCc2ccc(F)cc2)CC2(CCCC(COC(=O)NCCOC)O2)O1 (some centres undefined)
condition met

// inclusive: z-score at least 0.4? input: CCOC(=O)[C@H](Cc1ccccc1)NC(=O)CCC1CC(OC(=O)NCc2ccc3c(c2)OCO3)CC2(CCCC(COC(=O)NCCCN3CCCC3=O)O2)O1 (some centres undefined)
condition met

---

Quick reference: z-score of the listed items.
Assay: modulators of HCV replicon luciferase signal, primary screen, HCV replication inhibitor project, Huh7 cells, luciferase reporter (AID 1109);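 further: huh7 hepatoma cells harbouring a luciferase neomycin HCV replicon reporter; luciferase luminescence as measure of HCV replicon replication; test concentration not given here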
Settings: 48 h, higher = more signal
Lab note: record just the number, no unit beside it.

Known z-score results, listed for orientation:
[[record]]
compound = "CC(=O)OC[C@H]1O[C@@H](ON=C(C)C)[C@H](OC(C)=O)[C@@H](OC(C)=O)[C@@H]1OC(C)=O"
value_measured = -0.563

[[record]]
compound = "COC(=O)[C@H](Cc1ccccc1)NC(=O)[C@@H](C)CO"
value_measured = -0.499


Quick one: z-score for `CO[C@@H](C1CCCCC1)[C@@H](C)[C@H](OCc1cccc(Br)c1)[C@@H](C)CO` ?
-1.88

Quick one: z-score for `COCOc1ccc(Br)cc1C(=O)C=Cc1ccc2c(c1)OCO2` ?
-3.81

Quick one: z-score for `COC(=O)[C@H](CCSC)NC(=O)CC=C[C@@H](C)CO` ?
0.748

Quick one: z-score for `O=C(NN=C1C[C@@H](O)[C@@H](O)[C@@H]2[C@@H]3C(=O)N(Cc4ccccc4)C(=O)[C@@H]3CC[C@H]12)OCc1ccccc1` ?
0.0011

Quick one: z-score for `CC(C)[C@@H](OCc1ccccc1)[C@H](C)C=NOC[C@@H](O)[C@H]1O[C@@H]2OC(C)(C)O[C@@H]2[C@H]1O` ?
-1.75

Quick one: z-score for CCOC(=O)[C@H](CC(C)C)NC(=O)CCC1CC(OC(=O)NCCc2ccc(F)cc2)CC2(CCCC(COC(=O)NCc3cccc(C(F)(F)F)c3)O2)O1 (stereo partly drawn) ?
-0.0709

---

Molecular target: Follistatin-related protein 3 (Homo sapiens) (UniProt O95633)
Sequence (O95633 whole entry, looked up): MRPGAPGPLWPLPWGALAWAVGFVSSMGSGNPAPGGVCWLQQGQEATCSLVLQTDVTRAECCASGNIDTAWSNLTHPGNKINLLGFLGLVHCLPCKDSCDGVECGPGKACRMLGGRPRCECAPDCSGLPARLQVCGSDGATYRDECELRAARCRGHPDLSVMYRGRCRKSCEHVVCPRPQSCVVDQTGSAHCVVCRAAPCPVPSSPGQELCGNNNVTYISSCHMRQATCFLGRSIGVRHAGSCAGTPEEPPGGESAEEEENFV
Test: FSTL3 binders on small-molecule microarrays, primary screen, biochemical, small-molecule microarray, 635 nm fluorescence (AID 1105);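 further: score merges emission near 667 nm and signal to noise per printed spot across three slides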
Details: FSTL3 binding, higher = more signal
Quick reference: composite z-score of the listed items.

Known composite z-score results, listed for orientation:
[[record]]
compound = "COC(=O)CC=C[C@@H](C)[C@@H](C=NOC[C@@H](C)[C@H](OCc1ccccc1)C(C)C)OC"
value_measured = 0.102

[[record]]
compound = "CCOC(=O)[C@H](CC(C)C)NC(=O)CCC1CC(OC(=O)NCc2ccc3c(c2)OCO3)CC2(CCCC(COC(=O)NCc3ccccc3)O2)O1 (stereo partly drawn)"
value_measured = 0.675


Quick one: composite z-score for `CCOC(=O)CCN1C(=O)[C@H]2[C@H]3[C@H](O)[C@H](O)CC(=O)[C@@H]3CC[C@H]2C1=O` ?
1.15

Quick one: composite z-score for `CO[C@H]1COC(=O)CC=C[C@@H](C)COC(=O)[C@H]2CCCN2C(=O)CC=C[C@H]1C` ?
1.45

Quick one: composite z-score for `COc1ccc(COC(=O)NN=C2C[C@@H](O)[C@@H](O)[C@@H]3[C@@H]4C(=O)N(c5cccc(Oc6ccccc6)c5)C(=O)[C@@H]4CC[C@H]23)cc1` ?
-0.226

Quick one: composite z-score for `Cc1ccc(C(C)C)n1C(=O)OC(C)(C)C` ?
0.807

Quick one: composite z-score for `CC(=O)OC[C@H]1O[C@H](CCON=C(C)C)C=C[C@@H]1OC(C)=O` ?
0.296

Quick one: composite z-score for CC(C)=NOC(C)CN1CCCCc2nc(C)c(C)cc21 (stereo not drawn) ?
0.473

---

Quick reference: composite z-score of the listed items.
Target: Left-right determination factor 2 (Homo sapiens)
Test: LEFTY2 binders on small-molecule microarrays, primary screen, biochemical, small-molecule microarray, 635 nm fluorescence scan (AID 1110)
Details: LEFTY2 binding, higher = more signal

Known composite z-score results, listed for orientation:
[[record]]
compound = "CC(C)CON=C1C[C@@H](O)[C@@H](O)[C@@H]2[C@@H]3C(=O)N(Cc4ccc5c(c4)OCO5)C(=O)[C@@H]3CC[C@@H]12"
experimental_system = "Left-right determination factor 2 (Homo sapiens)"
experimental_endpoint = "composite z-score"
value_measured = -0.119

[[record]]
compound = "CCOC(=O)[C@H](Cc1ccccc1)NC(=O)CCC1CC(OC(=O)NCc2cccc3ccccc23)CC2(CCCC(COC(=O)NCCc3ccc(Cl)cc3)O2)O1 (some centres undefined)"
experimental_system = "Left-right determination factor 2 (Homo sapiens)"
experimental_endpoint = "composite z-score"
value_measured = 0.366

[[record]]
compound = "CCOC(=O)[C@H](Cc1ccccc1)NC(=O)CCC1CC(OC(=O)NCc2cccc3ccccc23)CC2(CCCC(COC(=O)NCCc3ccccc3OC)O2)O1 (some centres undefined)"
experimental_system = "Left-right determination factor 2 (Homo sapiens)"
experimental_endpoint = "composite z-score"
value_measured = 0.584


Switching to the query record.
Lookup: composite z-score / Left-right determination factor 2 (Homo sapiens) / `CCOC(=O)CCN1C(=O)[C@H]2[C@@H]3C(=CC[C@H]2C1=O)C(=O)[C@H]1O[C@H]1[C@H]3O`
-0.72

Attribution: PubChem BioAssay
